experiment: Half life in PBS at pH 7.2 to 7.4 at 37 degC for 24 hrs; type: ADME
quantity.measured: half-life

// half-life value for "CCCCCCCCCC(=O)N[C@@H](Cc1c[nH]c2ccccc12)C(=O)N[C@H](CC(N)=O)C(=O)N[C@@H](CC(=O)O)C(=O)N[C@@H]1C(=O)NCC(=O)N[C@@H](CCCN)C(=O)N[C@@H](CC(=O)O)C(=O)N[C@H](C)C(=O)N[C@@H](CC(=O)O)C(=O)NCC(=O)N[C@H](CO)C(=O)N[C@@H]([C@H](C)CC(=O)O)C(=O)N[C@@H](CC(=O)c2ccccc2NCCCCCC)C(=O)O[C@@H]1C" : 19 days

---

Each entry below carries its reported MIC.
tested on: Staphylococcus aureus; assay: Antibacterial activity against methicillin-resistant Staphylococcus aureus USA300 assessed as reduction in microbial growth incubated for 24 hrs by broth microdilution method; type: functional
Write the numeric value and append its unit.

These solved cases illustrate the format of a correct answer.
[
  {
    "molecule": "CCCCCCCCCC(=O)N[C@@H](Cc1c[nH]c2ccccc12)C(=O)N[C@H](CC(N)=O)C(=O)N[C@@H](CC(=O)O)C(=O)N[C@@H]1C(=O)NCC(=O)N[C@@H](CCCN)C(=O)N[C@@H](CC(=O)O)C(=O)N[C@H](C)C(=O)N[C@@H](CC(=O)O)C(=O)NCC(=O)N[C@H](CO)C(=O)N[C@@H]([C@H](C)CC(=O)O)C(=O)N[C@@H](CC(=O)c2ccccc2NCCCSC)C(=O)O[C@@H]1C (single isomer, unassigned)",
    "MIC": "0.5 µg/mL"
  },
  {
    "molecule": "CCCCCCCCCC(=O)N[C@@H](Cc1c[nH]c2ccccc12)C(=O)N[C@H](CC(N)=O)C(=O)N[C@@H](CC(=O)O)C(=O)N[C@@H]1C(=O)NCC(=O)N[C@@H](CCCN)C(=O)N[C@@H](CC(=O)O)C(=O)N[C@H](C)C(=O)N[C@@H](CC(=O)O)C(=O)NCC(=O)N[C@H](CO)C(=O)N[C@@H]([C@H](C)CC(=O)O)C(=O)N[C@@H](CC(=O)c2ccccc2NCCC[S+](C)[O-])C(=O)O[C@@H]1C (stereo not given in full)",
    "MIC": "128 µg/mL"
  },
  {
    "molecule": "CCCCCCCCCC(=O)N[C@@H](Cc1c[nH]c2ccccc12)C(=O)N[C@H](CC(N)=O)C(=O)N[C@@H](CC(=O)O)C(=O)N[C@@H]1C(=O)NCC(=O)N[C@@H](CCCN)C(=O)N[C@@H](CC(=O)O)C(=O)N[C@H](C)C(=O)N[C@@H](CC(=O)O)C(=O)NCC(=O)N[C@H](CO)C(=O)N[C@@H]([C@H](C)CC(=O)O)C(=O)N[C@@H](CC(=O)c2ccccc2NC)C(=O)O[C@@H]1C",
    "MIC": "1 µg/mL"
  },
  {
    "molecule": "CCCCCCCCCC(=O)N[C@@H](Cc1c[nH]c2ccccc12)C(=O)N[C@H](CC(N)=O)C(=O)N[C@@H](CC(=O)O)C(=O)N[C@@H]1C(=O)NCC(=O)N[C@@H](CCCN)C(=O)N[C@@H](CC(=O)O)C(=O)N[C@H](C)C(=O)N[C@@H](CC(=O)O)C(=O)NCC(=O)N[C@H](CO)C(=O)N[C@@H]([C@H](C)CC(=O)O)C(=O)N[C@@H](CC(=O)c2ccccc2NCCCCCC)C(=O)O[C@@H]1C",
    "MIC": "0.125 µg/mL"
  }
]

--- query ---
// MIC value for CCCCCCCCCC(=O)N[C@@H](Cc1c[nH]c2ccccc12)C(=O)N[C@H](CC(N)=O)C(=O)N[C@@H](CC(=O)O)C(=O)N[C@@H]1C(=O)NCC(=O)N[C@@H](CCCN)C(=O)N[C@@H](CC(=O)O)C(=O)N[C@H](C)C(=O)N[C@@H](CC(=O)O)C(=O)NCC(=O)N[C@H](CO)C(=O)N[C@@H]([C@H](C)CC(=O)O)C(=O)N[C@@H](CC(=O)c2ccccc2NCC2CCCCC2)C(=O)O[C@@H]1C (single isomer, unassigned) : 0.5 µg/mL

---

system: Staphylococcus aureus; assay: Antibacterial activity against methicillin-resistant Staphylococcus aureus USA300 assessed as reduction in microbial growth incubated for 24 hrs by broth microdilution method; type: functional
quantity.measured: MIC

These solved cases illustrate the format of a correct answer.
[
  {
    "compound": "CCCCCCCCCC(=O)N[C@@H](Cc1c[nH]c2ccccc12)C(=O)N[C@H](CC(N)=O)C(=O)N[C@@H](CC(=O)O)C(=O)N[C@@H]1C(=O)NCC(=O)N[C@@H](CCCN)C(=O)N[C@@H](CC(=O)O)C(=O)N[C@H](C)C(=O)N[C@@H](CC(=O)O)C(=O)NCC(=O)N[C@H](CO)C(=O)N[C@@H]([C@H](C)CC(=O)O)C(=O)N[C@@H](CC(=O)c2ccccc2NCC)C(=O)O[C@@H]1C (single isomer, unassigned)",
    "quantity.measured": "MIC",
    "measured": "1 µg/mL"
  },
  {
    "compound": "CCCCCCCCCC(=O)N[C@@H](Cc1c[nH]c2ccccc12)C(=O)N[C@H](CC(N)=O)C(=O)N[C@@H](CC(=O)O)C(=O)N[C@@H]1C(=O)NCC(=O)N[C@@H](CCCN)C(=O)N[C@@H](CC(=O)O)C(=O)N[C@H](C)C(=O)N[C@@H](CC(=O)O)C(=O)NCC(=O)N[C@H](CO)C(=O)N[C@@H]([C@H](C)CC(=O)O)C(=O)N[C@@H](CC(=O)c2ccccc2NCCC[S+](C)CC(O)CC)C(=O)O[C@@H]1C (single isomer, unassigned)",
    "quantity.measured": "MIC",
    "measured": "> 128 µg/mL"
  },
  {
    "compound": "CCCCCCCCCC(=O)N[C@@H](Cc1c[nH]c2ccccc12)C(=O)N[C@H](CC(N)=O)C(=O)N[C@@H](CC(=O)O)C(=O)N[C@@H]1C(=O)NCC(=O)N[C@@H](CCCN)C(=O)N[C@@H](CC(=O)O)C(=O)N[C@H](C)C(=O)N[C@@H](CC(=O)O)C(=O)NCC(=O)N[C@H](CO)C(=O)N[C@@H]([C@H](C)CC(=O)O)C(=O)N[C@@H](CC(=O)c2ccccc2NCc2ccccc2)C(=O)O[C@@H]1C",
    "quantity.measured": "MIC",
    "measured": "0.5 µg/mL"
  },
  {
    "compound": "C#CC[S+](C)CCCNc1ccccc1C(=O)C[C@@H]1NC(=O)[C@H]([C@H](C)CC(=O)O)NC(=O)[C@@H](CO)NC(=O)CNC(=O)[C@H](CC(=O)O)NC(=O)[C@@H](C)NC(=O)[C@H](CC(=O)O)NC(=O)[C@H](CCCN)NC(=O)CNC(=O)[C@@H](NC(=O)[C@H](CC(=O)O)NC(=O)[C@@H](CC(N)=O)NC(=O)[C@H](Cc2c[nH]c3ccccc23)NC(=O)CCCCCCCCC)[C@@H](C)OC1=O (stereo partly drawn)",
    "quantity.measured": "MIC",
    "measured": "128 µg/mL"
  },
  {
    "compound": "CCCCCCCCCC(=O)N[C@@H](Cc1c[nH]c2ccccc12)C(=O)N[C@H](CC(N)=O)C(=O)N[C@@H](CC(=O)O)C(=O)N[C@@H]1C(=O)NCC(=O)N[C@@H](CCCN)C(=O)N[C@@H](CC(=O)O)C(=O)N[C@H](C)C(=O)N[C@@H](CC(=O)O)C(=O)NCC(=O)N[C@H](CO)C(=O)N[C@@H]([C@H](C)CC(=O)O)C(=O)N[C@@H](CC(=O)c2ccccc2N)C(=O)O[C@@H]1C",
    "quantity.measured": "MIC",
    "measured": "2 µg/mL"
  },
  {
    "compound": "CCCCCCCCCC(=O)N[C@@H](Cc1c[nH]c2ccccc12)C(=O)N[C@H](CC(N)=O)C(=O)N[C@@H](CC(=O)O)C(=O)N[C@@H]1C(=O)NCC(=O)N[C@@H](CCCN)C(=O)N[C@@H](CC(=O)O)C(=O)N[C@H](C)C(=O)N[C@@H](CC(=O)O)C(=O)NCC(=O)N[C@H](CO)C(=O)N[C@@H]([C@H](C)CC(=O)O)C(=O)N[C@@H](CC(=O)c2ccccc2NCCCCCCC)C(=O)O[C@@H]1C (single isomer, unassigned)",
    "quantity.measured": "MIC",
    "measured": "0.25 µg/mL"
  },
  {
    "compound": "CCCCCCCCCC(=O)N[C@@H](Cc1c[nH]c2ccccc12)C(=O)N[C@H](CC(N)=O)C(=O)N[C@@H](CC(=O)O)C(=O)N[C@@H]1C(=O)NCC(=O)N[C@@H](CCCN)C(=O)N[C@@H](CC(=O)O)C(=O)N[C@H](C)C(=O)N[C@@H](CC(=O)O)C(=O)NCC(=O)N[C@H](CO)C(=O)N[C@@H]([C@H](C)CC(=O)O)C(=O)N[C@@H](CC(=O)c2ccccc2NCCC)C(=O)O[C@@H]1C",
    "quantity.measured": "MIC",
    "measured": "0.5 µg/mL"
  }
]

--- query ---
// MIC value for "CCCCCCCCCC(=O)N[C@@H](Cc1c[nH]c2ccccc12)C(=O)N[C@H](CC(N)=O)C(=O)N[C@@H](CC(=O)O)C(=O)N[C@@H]1C(=O)NCC(=O)N[C@@H](CCCN)C(=O)N[C@@H](CC(=O)O)C(=O)N[C@H](C)C(=O)N[C@@H](CC(=O)O)C(=O)NCC(=O)N[C@H](CO)C(=O)N[C@@H]([C@H](C)CC(=O)O)C(=O)N[C@@H](CC(=O)c2ccccc2NCc2ccc3c(c2)CCO3)C(=O)O[C@@H]1C" : 1 µg/mL
